These entries and their values trace back to ChEMBL document CHEMBL3046086.

system: Escherichia coli; experiment: Antibacterial activity against Escherichia coli assessed as growth inhibition at 1500 uM after 24 hr by agar well diffusion method; type: functional; details: read-out: IZ
The threshold is inclusive: zone of inhibition at 1500 µM of exactly 7 mm counts as rule met; values below receive rule not met.

Worked cases, answers included:
recordSmiles | discreteLabel
Cc1cc(O)nc2cc(N)ccc12 | rule not met
Cc1cc(=O)[nH]c2cc(Nc3nccnc3C(=O)O)ccc12 | rule met
Cc1cc(=O)[nH]c2cc(Nc3ncccc3C(=O)O)ccc12 | rule not met
Cc1cc(=O)[nH]c2cc(Nc3cnc(C(=O)O)cn3)ccc12 | rule met

Now consider a different molecule.
Lookup: Check if zone of inhibition at 1500 µM >= 7 mm (inclusive). Item: Cc1cc(=O)[nH]c2cc(Nc3ccc(C(=O)O)cc3)ccc12
Found: rule met

====

Exercise: for every item that follows, state its recorded zone of inhibition at 1500 µM.
test system: Escherichia coli; test: Antibacterial activity against Escherichia coli assessed as growth inhibition at 1500 uM after 24 hr by agar well diffusion method; type: functional; settings: read-out: IZ
One number for each entry, in mm.

Dear reader, for each entry below, please note its zone of inhibition at 1500 µM.
1. Cc1cc(=O)[nH]c2cc(Nc3ccccc3C(=O)O)ccc12
2. Cc1cc(=O)[nH]c2cc(Nc3ccncc3C(=O)O)ccc12
3. Cc1cc(=O)[nH]c2cc(Nc3cccc(C(=O)O)c3)ccc12

Found:
7
7
7
